Measured IC50 of individual entries
Assay: Antiplatelet activity in human citreated platelet rich plasma assessed as inhibition of adenosine diphosphate-induced platelet aggregation preincubated before adenosine diphosphate challenge
Assay type: functional
Value expressed in µg/mL; do not type the unit.

Some compounds with known IC50 results, for comparison:
CHEMICAL_STRUCTURE: Cc1c(C(=O)N/N=C/c2ccc([N+](=O)[O-])o2)nnn1Nc1ccc(Cl)cc1
DISPLAY_UNIT: µg/mL
IC50: 136
--
CHEMICAL_STRUCTURE: Cc1c(C(=O)N/N=C/c2ccc(Br)s2)nnn1Nc1ccccc1
DISPLAY_UNIT: µg/mL
IC50: 317
--
CHEMICAL_STRUCTURE: Cc1c(C(=O)N/N=C/c2ccc(Br)s2)nnn1Nc1ccc(Cl)cc1
DISPLAY_UNIT: µg/mL
IC50: 332
--
CHEMICAL_STRUCTURE: Cc1c(C(=O)N/N=C/c2ccncc2)nnn1Nc1ccccc1
DISPLAY_UNIT: µg/mL
IC50: 278

Find the recorded IC50 belonging to Cc1c(C(=O)N/N=C/c2ccncc2)nnn1Nc1ccc(Cl)cc1 and report it.
169

----------
Test system: Platelet
Experiment: Antiplatelet activity in human citreated platelet rich plasma assessed as inhibition of adrenaline-induced platelet aggregation at 100 ug/ml preincubated before adrenaline challenge
Format: functional
Activity calls are given as the source filed them. The rule behind the calls is not given here.
ASSAY_ENDPOINT: inhibition

CHEMICAL_STRUCTURE: Cc1c(C(=O)N/N=C/c2ccco2)nnn1Nc1ccc(Cl)cc1
inhibition: Active

CHEMICAL_STRUCTURE: Cc1c(C(=O)N/N=C/c2ccccc2)nnn1Nc1ccc(Cl)cc1
inhibition: Active

CHEMICAL_STRUCTURE: Cc1c(C(=O)N/N=C/c2ccc([N+](=O)[O-])o2)nnn1Nc1ccccc1
inhibition: Active

CHEMICAL_STRUCTURE: Cc1c(C(=O)N/N=C/c2ccco2)nnn1Nc1ccccc1
inhibition: Active

CHEMICAL_STRUCTURE: Cc1c(C(=O)N/N=C/c2ccc(Br)s2)nnn1Nc1ccccc1
inhibition: Active

Now look at this entry.
Find the recorded inhibition belonging to Cc1c(C(=O)N/N=C/c2ccccc2)nnn1Nc1ccccc1 and report it.
Active

----------
Test: Antiplatelet activity in human citreated platelet rich plasma assessed as inhibition of arachidonic acid-induced platelet aggregation preincubated before arachidonic acid challenge
Format: functional
ASSAY_ENDPOINT: IC50 (µg/mL)
Value expressed in µg/mL; do not type the unit.

Some compounds with known IC50 results, for comparison:
CHEMICAL_STRUCTURE: Cc1c(C(=O)N/N=C/c2ccc(Br)s2)nnn1Nc1ccccc1
DISPLAY_UNIT: µg/mL
IC50: 9.1
//
CHEMICAL_STRUCTURE: Cc1c(C(=O)N/N=C/c2ccccc2)nnn1Nc1ccccc1
DISPLAY_UNIT: µg/mL
IC50: 230

Now look at this entry.
Find the recorded IC50 belonging to Cc1c(C(=O)N/N=C/c2ccc([N+](=O)[O-])o2)nnn1Nc1ccc(Cl)cc1 and report it.
35.5

----------
Experiment: Antiplatelet activity in human citreated platelet rich plasma assessed as inhibition of arachidonic acid-induced platelet aggregation preincubated before arachidonic acid challenge
Type: functional
ASSAY_ENDPOINT: IC50 (µg/mL)
Value expressed in µg/mL; do not type the unit.

Some compounds with known IC50 results, for comparison:
COMPOUND: Cc1c(C(=O)N/N=C/c2ccncc2)nnn1Nc1ccc(Cl)cc1
DISPLAY_UNIT: µg/mL
EXPERIMENTAL_RESULT: 33.1
--
COMPOUND: Cc1c(C(=O)N/N=C/c2ccc([N+](=O)[O-])o2)nnn1Nc1ccccc1
DISPLAY_UNIT: µg/mL
EXPERIMENTAL_RESULT: 169
--
COMPOUND: Cc1c(C(=O)N/N=C/c2ccco2)nnn1Nc1ccc(Cl)cc1
DISPLAY_UNIT: µg/mL
EXPERIMENTAL_RESULT: 8.9
--
COMPOUND: Cc1c(C(=O)N/N=C/c2ccncc2)nnn1Nc1ccccc1
DISPLAY_UNIT: µg/mL
EXPERIMENTAL_RESULT: 8.8

Find the recorded IC50 belonging to Cc1c(C(=O)N/N=C/c2ccccc2)nnn1Nc1ccc(Cl)cc1 and report it.
32.2

Find the recorded IC50 belonging to Cc1c(C(=O)N/N=C/c2ccc(Br)s2)nnn1Nc1ccc(Cl)cc1 and report it.
9.1

Find the recorded IC50 belonging to CC(=O)Oc1ccccc1C(=O)O [ASPIRIN] and report it.
32.5

Find the recorded IC50 belonging to Cc1c(C(=O)N/N=C/c2ccco2)nnn1Nc1ccccc1 and report it.
112

Data origin, for the record: ChEMBL document CHEMBL1136866
